# PROTOCOL TEXT: solvent given as SMILES
# CONDITION LABEL: in CC(C)CCO
Property: solvation free energy, 298 K; scope: individual compounds
Please state the figure in kcal/mol; there is no need to write the unit.

Task: Kindly indicate its recorded solvation free energy, 298 K. Item: c1ccc2c(c1)ccc1ccccc12
Output: -9.73

Task: Kindly indicate its recorded solvation free energy, 298 K. Item: CCCC
Output: -2.02

Task: Kindly indicate its recorded solvation free energy, 298 K. Item: CC(C)C
Output: -1.8

Task: Kindly indicate its recorded solvation free energy, 298 K. Item: O=C1c2ccccc2-c2ccccc21
Output: -10.5

Task: Kindly indicate its recorded solvation free energy, 298 K. Item: c1ccc2c(c1)Cc1ccccc1-2
Output: -8.95

Task: Kindly indicate its recorded solvation free energy, 298 K. Item: COc1ccccc1C(=O)O
Output: -10.8

Task: Kindly indicate its recorded solvation free energy, 298 K. Item: O=C(O)c1ccccc1O
Output: -10.1

Task: Kindly indicate its recorded solvation free energy, 298 K. Item: O=C(c1ccccc1)C(O)c1ccccc1 (stereo not drawn)
Output: -14.6

Task: Kindly indicate its recorded solvation free energy, 298 K. Item: C1COCCO1
Output: -4.54

Task: Kindly indicate its recorded solvation free energy, 298 K. Item: [HH]
Output: 1.76

Task: Kindly indicate its recorded solvation free energy, 298 K. Item: Cc1c(C(=O)O)cc([N+](=O)[O-])cc1[N+](=O)[O-]
Output: -15.8

Task: Kindly indicate its recorded solvation free energy, 298 K. Item: CCCl
Output: -2.43

Task: Kindly indicate its recorded solvation free energy, 298 K. Item: C=CC=C
Output: -2.09
